- study_target: PI-3 kinase γ (Homo sapiens, UniProt P48736)
- Sequence (P48736 whole entry): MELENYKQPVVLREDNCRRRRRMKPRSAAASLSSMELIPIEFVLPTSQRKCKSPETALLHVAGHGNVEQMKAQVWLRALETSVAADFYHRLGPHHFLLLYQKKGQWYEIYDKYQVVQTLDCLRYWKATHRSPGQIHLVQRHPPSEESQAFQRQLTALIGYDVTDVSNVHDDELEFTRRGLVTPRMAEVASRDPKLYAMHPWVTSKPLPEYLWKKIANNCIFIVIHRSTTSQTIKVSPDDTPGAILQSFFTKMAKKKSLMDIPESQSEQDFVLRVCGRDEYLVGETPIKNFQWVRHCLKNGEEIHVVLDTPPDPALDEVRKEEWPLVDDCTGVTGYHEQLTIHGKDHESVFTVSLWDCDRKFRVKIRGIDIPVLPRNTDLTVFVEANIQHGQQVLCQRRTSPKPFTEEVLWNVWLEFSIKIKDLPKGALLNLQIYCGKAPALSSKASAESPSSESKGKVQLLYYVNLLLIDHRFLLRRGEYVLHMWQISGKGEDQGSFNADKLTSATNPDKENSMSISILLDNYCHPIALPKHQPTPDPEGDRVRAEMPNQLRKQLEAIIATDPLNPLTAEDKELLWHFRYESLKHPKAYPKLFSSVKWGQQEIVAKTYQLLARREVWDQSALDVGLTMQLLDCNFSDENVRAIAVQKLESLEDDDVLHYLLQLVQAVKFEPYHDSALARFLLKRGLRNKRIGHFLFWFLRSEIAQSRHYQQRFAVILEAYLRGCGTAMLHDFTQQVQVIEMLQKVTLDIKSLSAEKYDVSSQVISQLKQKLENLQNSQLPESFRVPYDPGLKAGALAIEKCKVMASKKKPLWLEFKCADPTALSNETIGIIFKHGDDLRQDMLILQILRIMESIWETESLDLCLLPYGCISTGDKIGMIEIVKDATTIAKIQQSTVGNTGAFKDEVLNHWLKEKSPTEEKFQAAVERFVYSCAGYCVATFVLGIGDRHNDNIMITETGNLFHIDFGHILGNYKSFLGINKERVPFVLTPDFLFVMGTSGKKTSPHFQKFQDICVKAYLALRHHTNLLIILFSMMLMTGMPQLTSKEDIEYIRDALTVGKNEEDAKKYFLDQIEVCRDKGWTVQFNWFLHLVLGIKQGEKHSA
- test_summary: PI3Kγ inhibitory activity, PI3-kinase HTRF assay (inhibition ratio)
- Type: biochemical
- cond: 0.5 h, compound at 50 μmol/L
Examples of compounds with documented inhibition at 50 µM follow.

O=C(O)c1ccc(-c2ccc3c(n2)N(C(=O)Nc2cccnc2)CCO3)cc1 [Compound I-208]    ≥ 95%
COc1ccc(NC(=O)N2CCOc3ccc(Nc4ccc(C(=O)O)cc4)nc32)cc1OC [Compound I-210]    ≥ 95%
COC(=O)c1ccc(Nc2ccc3c(n2)N(C(=O)Nc2ccccc2)CCO3)cc1 [Compound I-229]    ≥ 95%
CC(C)(C)OC(=O)NCCOc1ccccc1Nc1ccc2c(n1)N(C(=O)Nc1ccccc1)CCO2 [Compound I-215]    ≥ 95%

# evaluate next
Exam item: Suppose we examine the compound O=C(O)c1ccc(-c2ccc3c(n2)N(C(=O)Nc2ccccc2)CCO3)s1 [Compound I-109] ; what inhibition at 50 µM value has been reported?
Marked response: ≥ 95%

The reported measurements were obtained from patent US20110172217A1.
